Hello, the source for this data is patent US11548903B2, in case you need it.

# TESTED TARGET: Recombinant CatD (Homo sapiens (Human), UniProt P07339)
# Sequence (P07339 65-412): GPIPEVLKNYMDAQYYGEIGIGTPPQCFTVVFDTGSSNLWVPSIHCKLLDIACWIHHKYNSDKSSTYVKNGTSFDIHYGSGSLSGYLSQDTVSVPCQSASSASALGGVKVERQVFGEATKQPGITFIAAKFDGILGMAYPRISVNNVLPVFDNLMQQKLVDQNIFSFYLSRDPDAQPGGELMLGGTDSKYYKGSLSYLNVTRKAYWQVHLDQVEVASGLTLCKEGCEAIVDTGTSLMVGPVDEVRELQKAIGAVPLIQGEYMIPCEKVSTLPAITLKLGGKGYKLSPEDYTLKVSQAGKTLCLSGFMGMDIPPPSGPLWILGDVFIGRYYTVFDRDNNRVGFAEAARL
# ASSAY OVERVIEW: In vitro enzymatic Cathepsin D (CatD) FRET assay
# SETUP CONDITIONS: read-out: Cat D Enzyme IC50
Overview of reported IC50 across a group of compounds:

Before answering, review these 5 worked examples.
| STRUCTURE SMILES | MEASURED VALUE |
| --- | --- |
| COc1cnc(/C(F)=C/c2ccc(F)c([C@]34CO[C@H](C(F)(F)F)[C@H]3CSC(N)=N4)c2)cn1 | > 400 µM |
| NC1=N[C@@]2(c3cc(/C=C(\F)c4ccc(F)cn4)ccc3F)CO[C@H](C(F)(F)F)[C@H]2CS1 | > 400 µM |
| N#Cc1ccc(/C(F)=C/c2ccc(F)c([C@]34COC[C@H]3CSC(N)=N4)c2)nc1 | > 400 µM |
| NC1=N[C@@]2(c3cc(/C=C(\F)c4ccc(C(F)(F)F)cn4)ccc3F)CO[C@H](C(F)(F)F)[C@H]2CS1 | > 400 µM |
| N#Cc1ccc(/C(F)=C/c2ccc(F)c([C@]34CO[C@H](CF)[C@H]3CSC(N)=N4)c2)nc1 | > 400 µM |

Attention now turns to another entry.
Param readout = IC50; param system = Recombinant CatD (Homo sapiens (Human), UniProt P07339); param query = NC1=N[C@@]2(c3cc(/C=C(\F)c4ccc(OC(F)(F)F)cn4)ccc3F)CO[C@H](C(F)(F)F)[C@H]2CS1 ; response: value
> 44.4 µM
